assay-system: Human CB1R (Cannabinoid receptor 1) (Homo sapiens (Human))
Sequence (P21554 whole entry): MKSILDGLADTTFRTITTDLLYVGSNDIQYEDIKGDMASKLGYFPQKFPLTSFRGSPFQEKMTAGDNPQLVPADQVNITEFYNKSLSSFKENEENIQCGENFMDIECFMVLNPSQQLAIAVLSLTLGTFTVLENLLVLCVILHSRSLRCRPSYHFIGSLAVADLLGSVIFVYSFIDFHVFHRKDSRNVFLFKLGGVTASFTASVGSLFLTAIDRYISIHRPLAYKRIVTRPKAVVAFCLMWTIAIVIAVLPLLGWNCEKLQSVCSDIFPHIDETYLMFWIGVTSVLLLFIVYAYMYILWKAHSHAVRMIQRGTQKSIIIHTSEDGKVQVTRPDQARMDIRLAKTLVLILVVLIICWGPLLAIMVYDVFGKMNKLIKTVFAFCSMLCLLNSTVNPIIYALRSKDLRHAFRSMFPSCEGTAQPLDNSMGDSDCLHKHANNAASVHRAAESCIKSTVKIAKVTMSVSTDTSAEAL
test-protocol: CB-1 in vitro cAMP assay (HTRF), inverse agonism
cond: mean where tested more than once
property-measured: EC50

[[record]]
compound = "O=c1cc(NC2CCN(S(=O)(=O)C(F)(F)F)CC2)c2cc(C(c3ccc(Cl)cc3)c3ccc(C(F)(F)F)cc3)ccc2[nH]1 (centres unmarked)"
property_measured = "EC50"
reported_value = "29 nM"

[[record]]
compound = "COCCOc1ccc(Nc2cc(=O)[nH]c3ccc(C(c4ccc(Cl)cc4)c4ccc(Cl)cc4)cc23)cc1"
property_measured = "EC50"
reported_value = "55 nM"

[[record]]
compound = "Cc1ccc(Nc2cc(=O)[nH]c3ccc(C(c4ccc(Cl)cc4)c4ccc(Cl)cc4)cc23)cn1"
property_measured = "EC50"
reported_value = "300 nM"

[[record]]
compound = "O=c1cc(N[C@H]2CCN(S(=O)(=O)C(F)(F)F)C2)c2cc(C(c3ccc(Cl)cc3)c3nccs3)ccc2[nH]1 (some centres unmarked)"
property_measured = "EC50"
reported_value = "230 nM"

[[record]]
compound = "O=C(c1ccccc1)N1CCC(Nc2cc(=O)[nH]c3ccc(C(c4ccc(Cl)cc4)c4ccc(Cl)cc4)cc23)CC1"
property_measured = "EC50"
reported_value = "28 nM"

[[record]]
compound = "O=c1cc(Nc2ccc(CC(F)(F)F)cc2)c2cc(C(c3ccc(Cl)cc3)c3ccc(Cl)cc3)cc(Br)c2[nH]1"
property_measured = "EC50"
reported_value = "15 nM"

[[record]]
compound = "CC(C)(C)OC(=O)CCN1CCC(Nc2cc(=O)[nH]c3ccc(C(c4ccc(Cl)cc4)c4ccc(Cl)cc4)cc23)CC1"
property_measured = "EC50"
reported_value = "103 nM"

[[record]]
compound = "CCOC(=O)CCC(=O)N1CCC(Nc2cc(=O)[nH]c3ccc(C(c4ccc(Cl)cc4)c4ccc(Cl)cc4)cc23)CC1"
property_measured = "EC50"
reported_value = "31 nM"


Count: 6. Required value per item: EC50.
1. NC(=O)COc1ccc(Nc2cc(=O)[nH]c3ccc(C(c4ccc(Cl)cc4)c4ccc(Cl)cc4)cc23)cc1
2. COc1ccc(C(c2ccc(Cl)cc2)c2ccc3[nH]c(=O)cc(/C=C/c4ccccc4)c3c2)cc1 (centres unmarked)
3. O=C(O)c1ccc(CN2CCC(Nc3cc(=O)[nH]c4ccc(C(c5ccc(Cl)cc5)c5ccc(Cl)cc5)cc34)CC2)cc1
4. O=C(O)c1ccc(S(=O)(=O)N2CCC(Nc3cc(=O)[nH]c4ccc(C(c5ccc(Cl)cc5)c5ccc(Cl)cc5)cc34)CC2)cc1
5. CCOC(=O)N1CCC(Nc2cc(=O)[nH]c3ccc(C(c4ccc(Cl)cc4)c4nccs4)cc23)CC1 (centres unmarked)
6. O=c1cc(/C=C/c2ccc(Cl)cc2)c2cc(C(c3ccccc3)c3ccc(Cl)cc3)ccc2[nH]1 (centres unmarked)

Result ::
99 nM
426 nM
876 nM
159 nM
19 nM
1460 nM

----------
test-protocol: Chronic DIO Mouse, first study: plasma and brain concentrations
Format: in vivo
cond: male, plasma, DIO mice, 10 mg/kg daily oral, 2 Hours Post Dose, Day 16, (Std Dev), read-out: Plasma concentration
property-measured: concentration at 2 h (ng/mL)
Give bare numbers, in ng/mL.

Query :: Please look at this compound and report its concentration at 2 h: O=c1cc(NC2CCN(S(=O)(=O)C(F)(F)F)CC2)c2cc(C(c3ccc(Cl)cc3)c3ccc(Cl)cc3)ccc2[nH]1
Result :: 4440

Value source: patent US9266835B2
